In this section we review reported TGI values for a set of molecules.
- System: SN12C renal
- Assay remarks: NCI tumour cell line growth inhibition, 48 h
Assay readout: TGI

{"columns": ["Smiles repr", "Data value"],
 "data": [
  ["CN(Cc1cn(O)c2nc(=N)nc(N)c-2n1)c1ccc(C(=O)NC23CC4CC(CC(C4)C2)C3)cc1", "> 100 µM"],
  ["C[Si](C)(C)c1ccc(-c2c3ccc(-c4cc(Br)cc(Br)c4)nc3nc3nc(-c4cc(Br)cc(Br)c4)ccc23)cc1", "> 100 µM"],
  ["C=C1C(=O)O[C@@H]2/C=C(\\C)CC/C=C(\\C)CC[C@@]12O", "7.91 µM"],
  ["Cn1cc(C2=C(c3cn(-c4ccccc4)c4ccccc34)C(=O)NC2=O)c2ccccc21", "> 25 µM"],
  ["COC(=O)c1cc2oc(/C=C3/SC(=S)N(N)C3=O)cc2n1Cc1ccccc1", "> 43.3 µM"],
  ["COc1cc(/C=N/c2nc3cc4sc(/N=C/c5cc(OC)c(OC)c(OC)c5)nc4cc3s2)cc(OC)c1OC", "> 100 µM"],
  ["COc1cc2oc(-c3ccccc3)cc(=O)c2c(O)c1C", "> 100 µM"],
  ["C#Cc1cccc(Nc2ncnc3ccc(OCCCCNCCS(C)(=O)=O)cc23)c1", "> 25 µM"]
]}

====

# Lookup of reported TGI keyed by entry
- Tested on: OVCAR-4 ovarian
- Assay remarks: NCI tumour cell line growth inhibition, 48 h
Assay readout: TGI (µM)

{"columns": ["Molecule", "Assay readout", "Unit symbol", "Censoring qualifier", "Data value"],
 "data": [
  ["CC(C)(c1ccccc1)c1cc(O)c(C(C)(C)c2ccccc2)cc1O", "TGI", "µM", "=", 9.92],
  ["Nc1[nH]c(=S)nc2nc3c(c(-c4ccccc4)c12)CCCC3", "TGI", "µM", ">", 100],
  ["N#Cc1ccc(-c2nc3c(N)nc(-c4ccccc4)nc3o2)cc1", "TGI", "µM", ">", 100],
  ["CC(=O)Nc1ccc(-c2nnc(SCC(=O)Nc3cccc(Cl)c3)o2)cc1", "TGI", "µM", "=", 42.3],
  ["CC(=O)c1cc2c(s1)C(=O)c1sccc1C2=O", "TGI", "µM", "=", 0.195],
  ["O=C(N/C(=C\\c1cccc([N+](=O)[O-])c1)c1nc2ccccc2[nH]1)c1ccccc1", "TGI", "µM", ">", 100],
  ["Cc1c(/C=N/NC(=S)Nc2ccc(Cl)cc2)c(=O)n(-c2ccccc2)n1C", "TGI", "µM", ">", 57.1],
  ["OCC(O)CNc1ncnc2ccccc12 (stereo not given)", "TGI", "µM", ">", 100],
  ["CN(C)C=Nc1c2ccccc2nc2ccccc12", "TGI", "µM", "=", 21.1],
  ["CCOC(=O)C1(C/C=C/CCl)CCCC1=O (stereo not given)", "TGI", "µM", "=", 93.7],
  ["COc1ccccc1CC(C)N (stereo not given)", "TGI", "µM", ">", 100],
  ["O=C(Cc1ccccc1)NN1C(=O)/C(=C\\c2cccc([N+](=O)[O-])c2)SC1=Nc1ccccc1", "TGI", "µM", ">", 100],
  ["CSc1nc(CO)c(CO)n1C", "TGI", "µM", ">", 100],
  ["N#CC(C#N)=C1CCOc2ccc(F)cc21", "TGI", "µM", "=", 27.8],
  ["COc1cc2cc(C(=O)N3CC(CCl)c4ccc([N+](=O)[O-])cc43)[nH]c2c(OC)c1OC (stereo not given)", "TGI", "µM", ">", 100]
]}
